Answer each item with its documented TGI.
- System: HL-60(TB) leukemia
- procedure_details: NCI tumour cell line growth inhibition, 48 h

1. OCC1NC(CO)C(O)C1O (stereo unspecified) | > 100 µM

Would you mind listing TGI for each of the following compounds?
1. NC(=S)N/N=C/C(O[C@@H](/C=N/NC(N)=S)CO)n1cnc2c(N)ncnc21 (stereo partly specified)
2. COC(=O)CSc1cc(Cl)c(C)cc1S(=O)(=O)Nc1n[nH]c(N)n1
3. C#CC(O)/C=C/C(O)CCCC(O)CC#CC(O)C#CCCCCC(O)/C=C/CCCCCC(=O)CCCCCCCCCCCCCC(O)C(O)C#CC(=O)O (stereo unspecified)
4. O=[N+]([O-])c1ccccc1S(=O)(=O)c1cccc2c1NCCC2
5. CC(C)N(CCNc1nc(C(Cl)(Cl)Cl)nc2cc(Cl)ccc12)C(C)C

OUT:
["> 100 µM", "> 10 µM", "> 25 µM", "> 100 µM", "3.6 µM"]
